The values you see were collected from patent US20230365554A1.

Record set of IC50 for target or system wild-type Epidermal Growth Factor Receptor (EGFR) (Homo sapiens (Human), UniProt P00533).
Field format: number, assumed µM, no unit text.

Lookup: GET /values?readout=IC50&item= CCc1c[nH]c(=O)c2c(Nc3ccccc3)c(-c3ccnc(NC(=O)C(CC(F)F)c4ccc(F)cc4)c3)[nH]c12 (racemic) [Example 5]
Found: 7.3

Lookup: Then CN1CC(CC(F)(F)F)c2[nH]c(-c3ccnc(NC(=O)Cc4ccc(F)cc4)c3)c(Nc3ccccc3)c2C1=O (single isomer, unassigned) [Example 15] ?
Found: 2.9

---

Record type: IC50 measurement. Applies to: wild-type Epidermal Growth Factor Receptor (EGFR) (Homo sapiens (Human))

Lookup: Tell me the measured IC50 of CC1CN(C)C(=O)c2c1[nH]c(-c1ccnc(NC(=O)Cc3ccc(F)cc3)c1)c2Nc1ccccc1 (single isomer, unassigned; (-)) [Example 7] , please.
Found: 1300 nM

Lookup: Let us now turn to CCC1CNC(=O)c2c1[nH]c(-c1ccnc(NC(=O)Cc3ccc(F)cc3)c1)c2Nc1ccccc1 (racemic) [Example 1]
Found: 57 nM

Lookup: Field entry: CN1CC(CC(F)(F)F)c2[nH]c(-c3ccnc(NC(=O)Cc4ccc(F)cc4)c3)c(Nc3ccccc3)c2C1=O (single isomer, unassigned) [Example 16]
Found: 1800 nM

Lookup: Also check Cn1cc(CC(F)F)c2[nH]c(-c3ccnc(NC(=O)Cc4ccc(F)cc4)c3)c(Nc3ccccc3)c2c1=O
Found: 150 nM

Lookup: Now consider CC1CN(C)C(=O)c2c1[nH]c(-c1ccnc(NC(=O)Cc3ccc(F)cc3)c1)c2Nc1ccccc1 (racemic) [Example 6] and answer again.
Found: 1400 nM

---

Assay read-out pIC50; system under study: wild-type Epidermal Growth Factor Receptor (EGFR) (Homo sapiens (Human), UniProt P00533).
Sequence (P00533 669-1210): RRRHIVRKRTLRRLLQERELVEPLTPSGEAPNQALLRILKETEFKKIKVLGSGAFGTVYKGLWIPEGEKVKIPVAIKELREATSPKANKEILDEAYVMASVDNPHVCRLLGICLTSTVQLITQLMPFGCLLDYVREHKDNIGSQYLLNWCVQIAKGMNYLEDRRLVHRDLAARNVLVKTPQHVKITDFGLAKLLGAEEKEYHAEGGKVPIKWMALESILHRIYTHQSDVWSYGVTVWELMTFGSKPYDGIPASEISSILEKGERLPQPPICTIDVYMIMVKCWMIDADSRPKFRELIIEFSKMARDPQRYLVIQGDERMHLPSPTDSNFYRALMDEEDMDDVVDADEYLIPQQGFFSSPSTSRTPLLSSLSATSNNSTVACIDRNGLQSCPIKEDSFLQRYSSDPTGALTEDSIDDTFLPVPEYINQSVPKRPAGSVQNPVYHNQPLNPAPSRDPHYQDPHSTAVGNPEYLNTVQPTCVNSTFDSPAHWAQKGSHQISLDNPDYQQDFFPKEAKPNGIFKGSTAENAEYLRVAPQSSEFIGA
As a rule, pIC50 stands for the negative log10 of the concentration, concentration in M.

Lookup: Entry under review: O=C1N[C@@H]2CCC[C@@H]2c2[nH]c(-c3ccnc(NC(=O)C(CC(F)F)c4ccc(F)cc4)c3)c(Nc3ccccc3)c21 (single isomer, unassigned; (-)) [Example 23] . Reported pIC50?
Found: 4.89

Lookup: # iterate: CN1CC(CC2CC2)c2[nH]c(-c3ccnc(NC(=O)Cc4ccc(F)cc4)c3)c(Nc3ccccc3)c2C1=O (single isomer, unassigned) [Example 20]
Found: 5.10

Lookup: Also Cn1cc(CC(F)(F)F)c2[nH]c(-c3ccnc(NC(=O)C(CC(F)F)c4ccc(F)cc4)c3)c(Nc3ccccc3)c2c1=O (single isomer, unassigned) [Example 36] ?
Found: 5.96

Lookup: // query: Cc1cn(C)c(=O)c2c(Nc3ccccc3)c(-c3ccnc(NC(=O)C(C)c4ccc(F)cc4)c3)[nH]c12 (single isomer, unassigned) [Example 40]
Found: 4.77

Lookup: Same read-out for CN1CC(CC(F)F)c2[nH]c(-c3ccnc(NC(=O)Cc4ccc(F)cc4)c3)c(Nc3ccccc3)c2C1=O (racemic) [Example 42] ?
Found: 5.96

Lookup: Entry O=C1N[C@@H]2CCC[C@@H]2c2[nH]c(-c3ccnc(NC(=O)C(CC(F)F)c4ccc(F)cc4)c3)c(Nc3ccccc3)c21 (mixture of isomers) [Example 21] please
Found: 5.35

Lookup: And the next one, Cn1cc(CC2CC2)c2[nH]c(-c3ccnc(NC(=O)Cc4ccc(F)cc4)c3)c(Nc3ccccc3)c2c1=O ?
Found: 6.07

Lookup: Try the compound CN1CC(CC2CC2)c2[nH]c(-c3ccnc(NC(=O)Cc4ccc(F)cc4)c3)c(Nc3ccccc3)c2C1=O (racemic) [Example 18]
Found: 5.37

Lookup: Also need CN1CC(CC(F)F)c2[nH]c(-c3ccnc(NC(=O)Cc4ccc(F)cc4)c3)c(Nc3ccccc3)c2C1=O (single isomer, unassigned) [Example 44] , thanks.
Found: 6.31
